Please provide measured koff for the entries that follow.
Biological target: T1, rhIL22R-Fc (rhesus IL22R ECD fused to human Fc) (rhesus monkey, UniProt G7MHN4 16-228)
T1 construct: also called rhesus IL-22R1
T1 sequence: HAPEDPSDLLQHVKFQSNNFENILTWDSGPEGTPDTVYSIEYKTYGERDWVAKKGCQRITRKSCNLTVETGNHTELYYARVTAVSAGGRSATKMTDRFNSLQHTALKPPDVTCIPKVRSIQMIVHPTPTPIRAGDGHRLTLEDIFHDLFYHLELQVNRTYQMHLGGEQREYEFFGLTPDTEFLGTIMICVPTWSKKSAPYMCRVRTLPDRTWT
Test: off-rate of Fab fragment; method not stated
Number only, in s⁻¹; omit the unit.

Recorded koff of 223G5 Fab (Fab, V domains shown, Germlined variant of 166G8) VH: QVQLVESGGGLVQPGGSLRLSCAASGFTFSSYFMSWVRQAPGKGPEWVSGIHISGGITYYTDSVKGRFTISRDNAKNTLYLQMNSLRAEDTAVYYCVTPPGPFKAHYNGAKYWGKGTLVTVSS VL: QSALTQPPSVSGSPGQSVTISCTGTSSDIGSYNYVSWYQQLPGKAPKLLIYEVNKRSSGVPDRFSGSKSGNTASLTISGLQAEDEADYYCASYRLYADYVFGGGTQLTVL , please.
0.00584

What does the data say about its koff? Entry: 218A7 Fab (Fab, V domains shown, Light chain shuffled variant of 157A2) VH: QVQLVESGGGLVQPGGSLRLSCAASGFTFSSYDMSWVRQAPGKGLEWVSSIYNDGSNTAYSDSVKGRFTISRDNAKNTLYLQMNSLKSEDTAVYYCAKVGFSGTYYSESWGQGTQVTVSS VL: LPVLTQPSAVSVSLGQTARITCQGGYYAHWYQQKPGQAPVLVIYGQNNRPSGIPERFSGSGAGNTATLTISGAQAEDEAEYYCQSGSSSANAVFGGGTKLTVL
0.00097

Fill blank: measured koff of the binder 166G8 Fab (Fab, V domains shown, VH family 5; purified llama Fab) VH: QVQLVESGGGLVQPGDSLRLSCAASGFTFGSYFMSWVRQAPGKGPEWVSGIHISGGITYYLDSVKGRFTISRDNAKNTLYLQMNNLKPEDTAVYYCVTPPGPFKAHYNGMKYWGKGTLVTVSS VL: NFMLTQPPSVSGTLGKTVTISCTGTSRDIGDYNYVSWYQQLPGLAPKLLIYKVNTRSSGTPDRFSGSKSGNTASLTISGLQSEDEADYYCASYRLYADYVFGGGTHLTVL is ____.
0.0222

Report koff for 230C9 Fab (Fab, V domains shown, Germlined variant of 218A7) VH: QVQLVESGGGLVQPGGSLRLSCAASGFTFSSYDMNWVRQAPGKGLEWVSSIYNDASNTAYSDSVKGRFTISRDNSKNTLYLQMNSLRAEDTAVYYCAKVGFSGTYYSESWGQGTLVTVSS VL: SYELTQPSSVSVALGQTARITCQGGYYAHWYQQKPGQAPVLVIYGQNNRPSGIPERFSGSGAGNTATLTISRAQAEDEADYYCQSGSSSSNAVFGGGTKLTVL please.
0.000436
